Provide the reported soluble fraction (log2) of each item.
Assay Info: soluble fraction after stress (log2 fold change); higher = more stays soluble; pooled small domains, quantitative proteomics
Run Parameters: stress: pH 4
API note: the answer field is a bare number with no unit suffix.

Looking up `HMTGDIGAEAAKAAALAHAGVTESQTAKMKVDRDWDDGRLEYDVEFDVGRTEYEYTIDGVTGAVLEYEQDI` , I see its soluble fraction (log2) listed as 0.0208

Sure, the documented soluble fraction (log2) for `HMRPEVALSSRELEILEALATGKSNKELAQRLFISEATVKTHLIHIYQKLGVDTRTAAVTVARERKL` is -0.431

Lookup result for `HMGNLEENFRLKAGTEDGAWEFIRYHLGKLPVVNESNGTAIVNAERQAFLLFDRMVAFHIQRGVMVPLSAP` ; measured soluble fraction (log2): -0.159

Summary for this sequence, `HMTPKVAVPSFVGWKFEDVERQLGTMGLIRGKVDNHPSEEYSEGRVIWQSVLGEVEKGKVIDFWVSTGPE` : soluble fraction (log2) is -0.776

Just so you know, measured soluble fraction (log2) for `HMEVVRVEPGATVRDLGEALGVPPTRIIQILMGLGEMKTVTQTLSTEEIELVAEELGRRVEV` came out at -0.248

Per the records, this sequence ( `HMSPVKAPLPGVVLDIHVSVGQEVKASDTVVTLEAMKMENAIKAGVDGKVASISVGKGDSVLEGAVLLTI` ) has soluble fraction (log2) equal to 0.322

soluble fraction (log2) measured on `HMITAEQENILFEKASDDISNNIINKGIWTKAYSQAGGDESKQKAIYIDLLVNYYKMLIKAGEEFEDI` = -2.05

Lab note: `HMHQKELLNLSYKEAKRYILDDFERVFFTNLLRKTGGNVSRAAQLAQVHRKNLYVKLTELGIDPRQFG` gave soluble fraction (log2) of -0.585

###

Assay Info: soluble fraction after stress (log2 fold change); higher = more stays soluble; pooled small domains, quantitative proteomics
Run Parameters: stress: pH 4
Consider the following sequences; for each one, report its soluble fraction (log2).
# answer = number (no unit)

Note to self: soluble fraction (log2) recorded for `HMSPFYALDEVDSFLDGVNVERLAALIARQAEQAQFLVVSHRRPMIGASTRTIGVTQARGAHTQVVGLP` was -0.872

Input `HMEEVYVPDIRDKSISDAKKILSQMGLKYRIEGEGYDDSTVIKDQTPKPGALLAKDSVVIAYINE` . Output soluble fraction (log2): -0.0728

So for `HMTDLALHIGKTLRELRQRRGWSLDKTAQATGVSKAMLGQIERGESSPTVVTLWRISSGLQASFSEFLPP` , the logged soluble fraction (log2) turned out to be 0.0792

The sequence listed as `HMRARTLSTTGGESLLTLAESLYPDDDRARARFIEATAAANPKLFADIAALTRVLPAGTTLRMPDLRA` has a reported soluble fraction (log2) of 0.129

Record summary for `HMDPIATLTPREREVLSLMAEGRSNGAIAAALVVGDGAVEKHVSNIFQKLELTPAEGDHRRVLAVLRWLE` : reported soluble fraction (log2) = -0.864

// soluble fraction (log2) lookup, sequence = `HMIALLRLGTAPDIKAQAPLATILARHNGEMSAKDLWQRFGGEIDTFYAQLKTEVAHGWILEPT` , result: 0.0698

Input `HMSMEIQEIIRQLREKNDWSQEDMAERVGLSKNGYAKIERGETNLNLERLEQIANLFDLSVIDLIEMS` . Output soluble fraction (log2): -1.03

The sequence `HMKTMEQSYIGRKIILDENVEDSALIKFEGIYWTFKSVSGPLKKGTEVEIIGIEGNKILIKNK` showed soluble fraction (log2) equal to 0.181

Given item `HMKIVQDIAFSDFLNEVEKDNVLDVNIKGDLINGNLADGRKFKTYTPYDPNLIEKLSNKNVTINVEPYN` , the value recorded as its soluble fraction (log2) is 0.00986

Looking up `HMPRPRIHSVVRGDTLYGISRQYGVAMSKLASLNGLKSPYRIMVGRSLRLPSAIEAERDRTAREVVQ` , I found its soluble fraction (log2) recorded as 0.208

Noted for `HMQNSYSVEDLALKAGLSVDTIRYYQGLDLIAPPQKNGRRAIYGDEHLSRLDEIKKLALEGFSLRQISLLK` : its soluble fraction (log2) reads -1.02

`HMLDTELEANLRSQRDQKLVEELDPIVTNPLRWAELTSDKQTEWTQYRTDLLNVPQQSGFPTNVTWPEKP` yielded soluble fraction (log2) of -0.401

The sequence identified as `HMKSISMANGNVQLRINGVLASSLEVAALSPEDIKRVEYHDNPGLRYGEGIDIVLDYITIKRT` registered its soluble fraction (log2) at -1.16

Reported soluble fraction (log2) ( `HMAAPLTDRETEVLTLLARGLINKQIAEELHIGLTTVITHRRNIMEKLRVRSLAELILRAVAAGYVDAGR` ) = -0.78

Consider `HMNAIYKFVLGMIGKRSGVVTTLPSKKQVEFQANMLAEKFMQNGIDPNALKSPEQVKNVLANIDQ` . Its measured soluble fraction (log2) is 0.01

Value of measured soluble fraction (log2) for the entry `HMSEKLTLEAANEAAGMRIDKWLAMQLPELSRSRIEALISGGGVVVNGKNPSKSLKLKGGEQIELEIPE` : 0.108

# soluble fraction (log2) (sequence: `HMKFGEQIKERRQELDLTQAEVAEKLFVTRQAVSNWEHNKTYPDLNMLVKISNVYQISLDSLLR` ) is -0.0339

###

Assay Info: soluble fraction after stress (log2 fold change); higher = more stays soluble; pooled small domains, quantitative proteomics
Run Parameters: stress: pH 4
Exercise: state measured soluble fraction (log2) for each of the sequences provided.
Hey, just send me the number, nothing else.

Record `HMVKKYEKVKEYLLERILDGTYVPDLPIPPERELASLLDVNRMTVRRAVEELMYDGYLIRKKGSGTYLTR` , field soluble fraction (log2): -0.2

Memo: `HMETTVSYSGVVTASVLRIRKGPSVSSSVAGTLKKGTGVSIIFEDNGWGKLADGSGWVSLTYIKKNSTP` , reported soluble fraction (log2): -0.101

For this sequence ( `HMEIIFVEHKVRPGESVWLIARKYKVKKNHILAVNNLSEKSIIRPKQILKIPTSGYDQYKKSVE` ), measured soluble fraction (log2) is -0.495

The sequence `HMTVSIGSVIARERRLRGDTQQELAERLGVSKAAVSKWEVGQSIPDVTLLPRIAAYFSLTLDEL` showed soluble fraction (log2) equal to -0.276

Note to self: soluble fraction (log2) recorded for `HMQAPHLALSPREFQVLQGLLAGDALDIIAERLHLSAKTVSNHQTLIRQKLGVGNAVELLRYAQLHRL` was -0.661

The recorded soluble fraction (log2) for `HMNVDSLIGKKARVLEDIDNLNAKGQVSIDGMEWTARSEDGSEIKKDALVEVVAIEGVKAIVKQ` is -0.127

Looking up `HMGQVSEAGELEVAADRVIAANPEAVTKYKSGNENILQFLVGQMMKETKGAANPQVAAEILRKKIV` , I see its soluble fraction (log2) listed as 0.0296

Measured soluble fraction (log2) of `HMIIENIVVEIKGEVYNPGLYILEQGSRINDLIELSGGFTKDANGTDLNLAKVLSDGEVIIVSKKG` : -1.35

What the record says about `HMEGYLYLSESQNELILKNLKTPLKYNLYNASGKLIKKGNIKNTLDISELPKGVYIFTSSDNSFSKKFLKT` : soluble fraction (log2) is 0.276

Briefly, soluble fraction (log2) measured for `HMESIPDELLEAFKQDPAFKQAFYALTAGRQRGYIIHFSQPKQSQTRIGRIEKYKEQIFNGIGLN` : -0.125

// sample `HMPLTEMAVRKHLSAELAQKGYTIDPRALEILLQRTNTNLTAIANELPKLLLVAEDKQITVNEVSAM` , its soluble fraction (log2) was -0.1

`HMYKDVVVPNTVGDSEEKAYQTLSALGLVVNITYDEDASKSDRVVTSQNPTNKTIKEGESVNIVVNKQP` yielded soluble fraction (log2) of -0.242

soluble fraction (log2) in this record for `HMFKITNTLNKTAEVYLTIPENKKGKGKIMISVNGAFHELEAMTENDKIQSGAVVKVVRIENDNILIVET` : -1.96

Reported soluble fraction (log2) for `HMQLPFTPREHEITQLLSRGLSNRQIAEALSLSVRTVEGHIYQASTKLGISSRSELAVLVGQFA` was -0.967

Please fill in: soluble fraction (log2) reported for `HMNMNDIKFGKYLKRVRKKYNFSKEYVANILKVKESLVSDWESGRLTLNDEYMEKLSLFYGVNLYKK` = -0.123

Item: `HMRRSLIGPTVRERRRALGITQSRLAAEVGISASYLNLIEGDKRNIGGALLQRIAGALGLALD` | soluble fraction (log2): 0.0185

In plain terms, `HMSDTFENILQRLIKATGRKNASEMANALGLSPQSVYSAKTKGKIPPAWIFAAAERFNASADWIYFGY` has a documented soluble fraction (log2) of -0.759
